# Tested on: C. albicans
# Type: cell-based
Where a SMILES comes first, the peptide text is derived from it. The star is where a group is joined. Heptanoyl = CCCCCCC(=O)*; Octanoyl = CCCCCCCC(=O)*
Field: Minimal Inhibitory Concentration CA. Provide a value for each of the compounds that follow.
Numbers only; they are read as µg/mL.

Req: Item under review: CCCCCCCC(=O)N[C@@H](CC(C)C)C(=O)N[C@@H](CCCCN)C(=O)N[C@@H](CCCCN)C(=O)N[C@@H](CC(C)C)C(=O)N[C@@H](CC(C)C)C(=O)N[C@@H](CCCCN)C(=O)N[C@@H](CCCCN)C(=O)N[C@@H](CC(C)C)C(=O)N[C@@H](CCCCN)C(=O)N[C@@H](CCCCN)C(=O)N[C@@H](CC(C)C)C(N)=O [Oct-(SEQ ID NO: 110)-NH2] (Octanoyl-LKKLLKKLKKL-NH2) . Reported Minimal Inhibitory Concentration CA?
Resp: 32

Req: Next compound up: CCCCCCCC(=O)N[C@@H](CCCCN)C(=O)N[C@@H](CCCCN)C(=O)N[C@@H](Cc1ccccc1)C(=O)N[C@@H](C)C(=O)N[C@@H](CCCCN)C(=O)N[C@@H](Cc1ccccc1)C(=O)N[C@@H](C)C(=O)N[C@@H](CCCCN)C(=O)N[C@@H](CCCCN)C(=O)N[C@@H](Cc1ccccc1)C(=O)N[C@@H](C)C(N)=O [Oct-(SEQ ID NO: 122)-NH2] (Octanoyl-KKFAKFAKKFA-NH2)
Resp: 64

Req: Next compound up: CCCCCCC(=O)N[C@@H](CC(C)C)C(=O)N[C@@H](CCCCN)C(=O)N[C@@H](CCCCN)C(=O)N[C@@H](CC(C)C)C(=O)N[C@@H](CC(C)C)C(=O)N[C@@H](CCCCN)C(=O)N[C@@H](CCCCN)C(=O)N[C@@H](CC(C)C)C(=O)N[C@@H](CCCCN)C(=O)N[C@@H](CCCCN)C(=O)N[C@@H](CC(C)C)C(N)=O [Hep-(SEQ ID NO: 110)-NH2] (Heptanoyl-LKKLLKKLKKL-NH2)
Resp: 32
